Sourced from patent US20190077844A1

- tested on: T1, Human glypican-3 on cells (Huh7, Hep3B, H446, HepG2; Hep3B xenograft tissue) (human, UniProt P51654 25-554)
- T1 construct: Endogenous GPC3 of human tumor cell lines; also called huGPC3 on cells; GPC3 receptor
- T1 sequence (P51654 25-554 limits assumed): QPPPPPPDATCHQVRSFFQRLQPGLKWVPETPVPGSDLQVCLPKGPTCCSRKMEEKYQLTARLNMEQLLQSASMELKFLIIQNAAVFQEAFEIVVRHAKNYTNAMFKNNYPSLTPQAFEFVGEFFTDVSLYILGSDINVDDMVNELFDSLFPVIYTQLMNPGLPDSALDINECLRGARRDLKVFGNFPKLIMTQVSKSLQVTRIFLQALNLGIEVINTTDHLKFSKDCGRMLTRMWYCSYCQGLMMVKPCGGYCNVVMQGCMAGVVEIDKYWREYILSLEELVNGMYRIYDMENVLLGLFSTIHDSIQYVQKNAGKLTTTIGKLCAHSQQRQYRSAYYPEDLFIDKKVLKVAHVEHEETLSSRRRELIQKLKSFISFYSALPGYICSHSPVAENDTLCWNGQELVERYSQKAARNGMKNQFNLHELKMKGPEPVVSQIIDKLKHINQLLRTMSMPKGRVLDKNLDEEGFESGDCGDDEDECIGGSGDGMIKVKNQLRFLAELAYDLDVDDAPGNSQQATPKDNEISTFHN
- assay notes: flow cytometry on Huh7 cells, EC50 ratio to parent Adnectin
quantity measured: huGPC3 on cells EC50 (mutant/parent) (ratio mutant/parent)
State the answer as a number, implicitly in ratio mutant/parent.

Observe how each entry below is paired with its result.
{"binder": "ADX_6077_F02 DG→AG mutant, alkylated (designed binder, C-terminal cysteine alkylated, also called P1-055669) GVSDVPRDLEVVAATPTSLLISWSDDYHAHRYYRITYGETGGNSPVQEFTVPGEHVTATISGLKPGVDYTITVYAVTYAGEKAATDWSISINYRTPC", "unit of measure": "ratio mutant/parent", "huGPC3 on cells EC50 (mutant/parent)": 1.1}
{"binder": "ADX_6077_F02 DG→SG mutant, alkylated (designed binder, C-terminal cysteine alkylated, also called P1-055668) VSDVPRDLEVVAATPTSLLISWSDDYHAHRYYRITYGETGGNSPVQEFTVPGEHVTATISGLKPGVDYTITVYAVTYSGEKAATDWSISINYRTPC", "unit of measure": "ratio mutant/parent", "huGPC3 on cells EC50 (mutant/parent)": 1.1}
{"binder": "ADX_6077_F02 DG→EG mutant, alkylated (designed binder, C-terminal cysteine alkylated, also called P1-055673) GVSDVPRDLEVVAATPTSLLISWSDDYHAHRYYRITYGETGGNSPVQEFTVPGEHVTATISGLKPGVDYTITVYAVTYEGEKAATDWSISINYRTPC", "unit of measure": "ratio mutant/parent", "huGPC3 on cells EC50 (mutant/parent)": 1.6}
{"binder": "ADX_6077_F02 DG→DA mutant, alkylated (designed binder, C-terminal cysteine alkylated, also called P1-055660) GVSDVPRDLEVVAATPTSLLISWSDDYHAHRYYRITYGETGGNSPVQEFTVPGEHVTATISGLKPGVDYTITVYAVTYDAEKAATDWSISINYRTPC", "unit of measure": "ratio mutant/parent", "huGPC3 on cells EC50 (mutant/parent)": 1.3}

**Query** Assign huGPC3 on cells EC50 (mutant/parent) to the following record: ADX_6077_F02 DG→DL mutant, alkylated (designed binder, C-terminal cysteine alkylated, also called P1-055671) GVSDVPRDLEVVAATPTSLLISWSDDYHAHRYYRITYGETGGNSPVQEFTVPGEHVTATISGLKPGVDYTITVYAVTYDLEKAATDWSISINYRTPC
**Result** 1.7

**Query** Assign huGPC3 on cells EC50 (mutant/parent) to the following record: ADX_6077_F02 DG→DS mutant, alkylated (designed binder, C-terminal cysteine alkylated, also called P1-055667) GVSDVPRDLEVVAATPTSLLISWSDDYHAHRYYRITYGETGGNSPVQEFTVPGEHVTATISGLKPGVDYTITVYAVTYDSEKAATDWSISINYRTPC
**Result** 1.4
